- testProtocol: qHTS assay to identify small molecule antagonists of the retinoic acid receptor (RAR) signaling pathway (AID 1159552; note: nearly all actives have a fitted effect of over 50% in size; note: potency is the fitted concentration of half-maximal effect)
- runParameters: C3RL4 RARE luciferase reporter, retinol-stimulated, 6 h; series mostly up to 92.4 µM
- Text: National Center for Advancing Translational Sciences [NCATS] NIH Chemical Genomics Center [NCGC] U.S. Environmental Protection Agency [EPA] National Institutes of Environmental Health Sciences [NIEHS] National Toxicology Program [NTP] U.S. Food and Drug Administration [FDA] […]
Results filed as inconclusive are left out. The source made the active and inactive calls. Calls come from the whole dose curve; as a rule, active = well fitted inhibition curve with a large enough effect in the repeat runs; inconclusive = weak or mixed curves, or effect the other way; inactive = no such curve, though single readings can be large or run the other way.
measuredParameter: Potency

# annotated cases, reported Potency shown
molecule	measuredParameter	assayValue
O=C(O)Cc1ccc(OCCNC[C@H](O)c2ccccc2)cc1	Potency	inactive
CC1(C)COCN1	Potency	inactive
CCCCCCCCCCCCCc1ccccc1	Potency	inactive
CCCC(CC)CCCCCCCN (stereo not given)	Potency	inactive
C=CC(C)C#N (stereo not given)	Potency	inactive
CN1CN(C)CN(C)C1	Potency	inactive
c1ccc2c(c1)CCC2	Potency	inactive
CNC(=O)c1cc(Oc2ccc(NC(=O)Nc3ccc(Cl)c(C(F)(F)F)c3)cc2)ccn1	Potency	29.8 µM (active)

Lookup: May I ask what Potency has been recorded for OCCC(O)CO (stereo not given) ?
Found: inactive

Lookup: May I ask what Potency has been recorded for O=C(O)CC(=O)O ?
Found: inactive
